Test system: Staphylococcus aureus
assay protocol: Antibacterial activity against Staphylococcus aureus ATCC 29213 by microdilution method
Format: functional

molecule: CC(=O)/C=C/[C@@]12O[C@]1(C)C[C@@H](O)[C@H](O[C@@H]1O[C@H](CO)[C@@H](O)[C@H](O)[C@H]1O)C2(C)C
MBC: > 700 µg/mL

molecule: CC/C=C\CC(O)C(O)/C=C/C(O)CCCCCCCC(=O)O (stereo not drawn)
MBC: > 700 µg/mL

molecule: C=C[C@](C)(CC/C=C(\C)CO)O[C@@H]1O[C@H](CO)[C@@H](O)[C@H](O)[C@H]1O
MBC: > 700 µg/mL

====

Test system: Staphylococcus aureus
assay protocol: Antibacterial activity against Staphylococcus aureus ATCC 29213 by microdilution method
Format: functional
Quick reference: MBC of the listed items.

compound: CCCCCC(O)C(O)/C=C/C(O)CCCCCCCC(=O)O (stereo not given)
result comparator: >
MBC, µg/mL: 700
--
compound: COc1cc(/C=C/C(=O)NC[C@@H](O)c2ccc(O)cc2)ccc1O
result comparator: =
MBC, µg/mL: 600
--
compound: COc1cc(/C=C/C(=O)NCCc2ccc(O)cc2)ccc1O [N-TRANS-FERULOYL TYRAMINE]
result comparator: >
MBC, µg/mL: 700
--
compound: COc1cc(O[C@@H]2O[C@H](CO)[C@@H](O)[C@H](O)[C@H]2O)cc(OC)c1OC
result comparator: >
MBC, µg/mL: 700
--
compound: N#C[C@H](O[C@@H]1O[C@H](CO)[C@@H](O)[C@H](O)[C@H]1O)c1ccc(O)cc1
result comparator: =
MBC, µg/mL: 700

====

Tested on: Staphylococcus epidermidis
assay protocol: Antibacterial activity against Staphylococcus epidermidis NCIMB 8853 by microdilution method
Assay type: functional

compound: COc1cc(/C=C/C(=O)NC[C@@H](O)c2ccc(O)cc2)ccc1O
MBC: > 700 µg/mL
//
compound: C=C[C@](C)(CC/C=C(\C)CO)O[C@@H]1O[C@H](CO)[C@@H](O)[C@H](O)[C@H]1O
MBC: > 700 µg/mL
//
compound: CC/C=C\CC(O)C(O)/C=C/C(O)CCCCCCCC(=O)O (stereo not drawn)
MBC: > 700 µg/mL

====

Quick reference: MIC of the listed items.
Test system: Micrococcus luteus
assay protocol: Antibacterial activity against sMicrococcus luteus NCIMB 8166 by microdilution method
Format: functional
reported endpoint: MIC (µg/mL)

compound: COc1cc(/C=C/C(=O)NC[C@@H](O)c2ccc(O)cc2)ccc1O
unit label: µg/mL
endpoint value: 400
//
compound: CC/C=C\CC(O)C(O)/C=C/C(O)CCCCCCCC(=O)O (stereo not drawn)
unit label: µg/mL
endpoint value: 400
//
compound: CCCCCC(O)C(O)/C=C/C(O)CCCCCCCC(=O)O (stereo not drawn)
unit label: µg/mL
endpoint value: 400
//
compound: COc1cc(/C=C/C(=O)NCCc2ccc(O)cc2)ccc1O [N-TRANS-FERULOYL TYRAMINE]
unit label: µg/mL
endpoint value: 500
//
compound: COc1cc(O[C@@H]2O[C@H](CO)[C@@H](O)[C@H](O)[C@H]2O)cc(OC)c1OC
unit label: µg/mL
endpoint value: 500
//
compound: CC(=O)/C=C/[C@@]12O[C@]1(C)C[C@@H](O)[C@H](O[C@@H]1O[C@H](CO)[C@@H](O)[C@H](O)[C@H]1O)C2(C)C
unit label: µg/mL
endpoint value: 500
//
compound: C=C[C@](C)(CC/C=C(\C)CO)O[C@@H]1O[C@H](CO)[C@@H](O)[C@H](O)[C@H]1O
unit label: µg/mL
endpoint value: 600
//
compound: N#C[C@H](O[C@@H]1O[C@H](CO)[C@@H](O)[C@H](O)[C@H]1O)c1ccc(O)cc1
unit label: µg/mL
endpoint value: 200
